B1: TPR 5TU (parent)
chain: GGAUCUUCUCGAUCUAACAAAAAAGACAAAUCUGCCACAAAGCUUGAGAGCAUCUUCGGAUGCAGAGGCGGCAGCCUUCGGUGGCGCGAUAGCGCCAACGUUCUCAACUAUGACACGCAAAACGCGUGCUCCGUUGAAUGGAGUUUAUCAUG

Variants of: B1
testName: polymerase ribozyme fitness, log enrichment relative to wild type (log ratio); higher = more active; in vitro selection for triplet polymerase activity
Variants at the floor of the assay were thinned out.
readoutType: polymerase ribozyme fitness (log ratio)

// solved cases for polymerase ribozyme fitness (log ratio) follow
polymerase ribozyme fitness (log ratio) for G92A A113C is -4.16

polymerase ribozyme fitness (log ratio) measured on A28U U53A G81C C95G A107U U139A = ≤ -4.2

Continuing:
Lab note: measured polymerase ribozyme fitness (log ratio) of A47C G58C A64U U104C A107G was ≤ -4.2

The variant listed as C38U G83A G100A C129G shows polymerase ribozyme fitness (log ratio) equal to ≤ -4.2
